Can you tell me MIC for the items I'm about to list?
Tested on: Methicillin Resistant Staphylococcus aureus strain USA 300, NRS384
experiment summary: Minimum inhibitory concentration, broth micro-dilution (CLSI), S. aureus
Format: cell-based
condition set: Staphylococcus aureus, MRSA / NRS 384 / USA300, 22 h, MRSA USA 300 NRS384; 35° C., 22 hours; read-out: MIC (μg/mL) S. aureus
Value expressed in µg/mL; do not type the unit.

Request: Look at this compound and give its reported MIC. Cc1cc(OCC2C[C@H]3CC[C@@H]2C3)ccc1C(=O)N[C@@H](CCN)C(=O)N(C)[C@@H]1C(=O)N[C@@H](C)C(=O)N[C@H](C(=O)NCC#N)Cc2ccc(OCCN)c(c2)-c2cc1ccc2OCCN (stereo partly drawn)
Response: 0.094

Request: Need MIC, item "Cc1nc(-c2ccc(CC(C)C)cc2)ccc1C(=O)N[C@@H](CCN)C(=O)N(C)[C@@H]1C(=O)N[C@@H](C)C(=O)N[C@H](C(=O)NCC#N)Cc2ccc(OCCN)c(c2)-c2cc1ccc2OCCN"
Response: 0.023

Request: # MIC lookup, item "CCCCCCc1ccc(C(=O)N[C@@H](CCN)C(=O)N(C)[C@@H]2C(=O)N[C@@H](C)C(=O)N[C@H](C(=O)NCC#N)Cc3ccc(O)c(c3)-c3cc2ccc3O)c(C)c1"
Response: 0.25
